Just for reference, PubChem BioAssay AID1159580 is where these values come from.

List of normalized growth values.
experiment: chemical genetic growth profiling, strain panel (AID 1159580);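 also: tested at 20 µM; growth read once vehicle control cultures reached saturation at 30 °C; 1 = growth at the plate median or of vehicle wells; lower values mean less growth of the strain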; conditions: S. cerevisiae deletion strains, growth OD, locus YBR229C, strain ROT2, hits give low values
Among all 5,500 compounds or so, about 2,000 (36%) were called active. Inconclusive results (about 18%) are left out. The list shows a part of the results.
Lab note: record just the number, no unit beside it.

Known normalized growth results, listed for orientation:
O=c1ccc2cc(O[C@@H]3O[C@H](CO)[C@@H](O)[C@H](O)[C@H]3O)c(O)cc2o1	1.02
COc1ccc(/C=N\NC(=O)CC#N)cc1OC	1
CC(C)=CCOc1c2occc2cc2ccc(=O)oc12	0.896
CC(C)=CCOc1cc2oc(=O)ccc2cc1O	0.967
O=[N+]([O-])c1cc(C(F)(F)F)ccc1NCCCn1ccnc1	1.01

Ask: Return reported normalized growth; argument: CCS(=O)(=O)CCn1c([N+](=O)[O-])cnc1C
Reply: 1.01

Ask: Same lookup for Cn1c(=O)[nH]c(=O)c2[nH]cnc21 , please.
Reply: 0.987

Ask: Same lookup for CCCc1nc(C(C)(C)O)c(C(=O)OCc2oc(=O)oc2C)n1Cc1ccc(-c2ccccc2-c2nn[nH]n2)cc1 , please.
Reply: 0.989

Ask: Same lookup for COc1ccc(/C=C(\C#N)c2nc3ccccc3[nH]2)cc1OC , please.
Reply: 0.947

Ask: Same lookup for O=[N+]([O-])c1ccc(C2N(Cc3ccccc3)CCC3CCCCN32)cc1 (stereo not given) , please.
Reply: 0.998

Ask: Same lookup for CCCCC(=O)N(Cc1ccc(-c2ccccc2-c2nn[nH]n2)cc1)[C@H](C(=O)O)C(C)C , please.
Reply: 1

* * *

assay: chemical genetic growth profiling, strain panel (AID 1159580);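 also: tested at 20 µM; growth read once vehicle control cultures reached saturation at 30 °C; 1 = growth at the plate median or of vehicle wells; lower values mean less growth of the strain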; settings: S. cerevisiae deletion strains, growth OD, locus YHR094C, strain hxt1, hits give low values
The campaign covered roughly 5,500 compounds. About 2,000 (36%) were called active. About 18% were inconclusive and are not listed. The list shows a part of the results.
# note: boundary value 1 maps to Criterion not met; normalized growth below it maps to Criterion met

Worked cases, answers included:
c1coc(CNc2ncnc3nc[nH]c23)c1	Criterion met
COc1cc(OC)cc(OC)c1	Criterion met

Ask: API: query returns whether the compound falls strictly under 1 in normalized growth. Query: COc1cc(OC)c(-c2c(OC)cc(OC)cc2OC)c(OC)c1
Reply: Criterion not met

* * *

assay: chemical genetic growth profiling, strain panel (AID 1159580);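 also: tested at 20 µM; growth read once vehicle control cultures reached saturation at 30 °C; 1 = growth at the plate median or of vehicle wells; lower values mean less growth of the strain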; settings: S. cerevisiae deletion strains, growth OD, locus YHR129C, strain ARP1, hits give low values
Screen size: about 5,500 compounds; about 2,000 (36%) were called active. Another 18% or so got no clear call; they are omitted. The list shows a part of the results.
measured.endpoint: normalized growth
Lab note: record just the number, no unit beside it.

Known normalized growth results, listed for orientation:
C[C@]12C=CC(=O)C=C1CCC1C2C(=O)C[C@@]2(C)C1CC[C@]2(O)C(=O)CO (some centres undefined)	0.963
O=C(O)c1cc2cc(Cl)ccc2[nH]1	1.01
CN1CCN(C(c2ccccc2)c2ccccc2)CC1	0.999
C[C@]12C=CC(=O)C=C1CCC1C2CC[C@]2(C)C(=O)CCC12 (some centres undefined)	1
CC(=O)OCC(=O)[C@@]1(O)CCC2C3CCC4=CC(=O)CC[C@]4(C)[C@@]3(F)[C@@H](O)C[C@@]21C (some centres undefined)	1.01

Field: next compound
Ask: Return reported normalized growth; argument: COC(=O)C[C@H]1C(C)(C)[C@@H](OC(C)=O)[C@@H]2CC3C4CC(=O)O[C@@H](c5ccoc5)[C@]4(C)CCC3[C@@]1(C)C2=O (some centres undefined)
Reply: 1.01
